System: central benzodiazepine receptors (CBR)
Run Description: Affinity to central benzodiazepine receptors, competitive displacement of [3H]-flumazenil (radioreceptor method)
Assay type: binding
Details: 1×10^−6 mol/L
Measured Parameter: Affinity CBR, % (%)
Note: unit % is implicit; provide only the numeric part.

Prompt line: Endpoint output: Affinity CBR, % of O=C1Nc2ccc(Cl)cc2C(c2ccccc2)=NC1OCC1CC1 (stereo not drawn) . Value?
Response line: 79

====

Tested on: food consumption by rats
Run Description: Action on appetite, Anorexia method (liquid food consumption)
Assay type: in vivo
Details: dose 0,1 mg/kg intraperitoneally
Quick list: Amount of consumed liquid food during 30 min in ml per entry.

INSERT INTO measurements (compound, measured_value) VALUES
  ('CC(=O)c1ccc(NC2N=C(c3ccccc3F)c3cc([N+](=O)[O-])ccc3NC2=O)cc1 (centres unmarked)', '14 ± 1,8 ml'),
  ('O=C1Nc2ccc(OC(F)(F)F)cc2C(c2ccccc2)=NC1Nc1ccccc1Cl (centres unmarked)', '3,5 ± 2,3 ml'),
  ('O=C1Nc2ccc([N+](=O)[O-])cc2C(c2ccccc2)=NC1Nc1cccc(Cl)c1 (centres unmarked)', '5,1 ± 2,2 ml'),
  ('O=C1Nc2ccc(Cl)cc2C(c2ccccc2)=NC1Nc1ccc(Br)cc1 (centres unmarked)', '6,8 ± 2,7 ml'),
  ('O=C1Nc2ccc([N+](=O)[O-])cc2C(c2ccccc2Cl)=NC1Nc1ccccc1Br (centres unmarked)', '6,5 ± 3,4 ml');

Prompt line: Endpoint output: Amount of consumed liquid food during 30 min in ml of O=C1Nc2ccc([N+](=O)[O-])cc2C(c2ccccc2F)=NC1Nc1cccc(Cl)c1 (centres unmarked) . Value?
Response line: 5,9 ± 2,2 ml

Prompt line: Endpoint output: Amount of consumed liquid food during 30 min in ml of O=C1Nc2ccc(OC(F)(F)F)cc2C(c2ccccc2)=NC1Nc1ccc(Cl)cc1 (centres unmarked) . Value?
Response line: 6,5 ± 3,2 ml

Prompt line: Endpoint output: Amount of consumed liquid food during 30 min in ml of O=C1Nc2ccc([N+](=O)[O-])cc2C(c2ccccc2Cl)=NC1Nc1cccc(Br)c1 (centres unmarked) . Value?
Response line: 6,1 ± 3,2 ml

====

Quick list: Amount of consumed liquid food during 30 min in ml per entry.
Test system: food consumption by rats
Run Description: Action on appetite, Anorexia method (liquid food consumption)
Format: in vivo
Details: dose 0,1 mg/kg intraperitoneally

Please review the entries below; each comes with its answer.
INSERT INTO measurements (compound, assay_target, measured_value) VALUES
  ('O=C1Nc2ccc(OC(F)(F)F)cc2C(c2ccccc2)=NC1Nc1cccc(Cl)c1 (centres unmarked)', 'food consumption by rats', '5,7 ± 2,2 ml'),
  ('O=C1Nc2ccc([N+](=O)[O-])cc2C(c2ccccc2)=NC1Nc1ccccc1Cl (centres unmarked)', 'food consumption by rats', '3,1 ± 2,4 ml'),
  ('CC(=O)c1ccccc1NC1N=C(c2ccccc2F)c2cc([N+](=O)[O-])ccc2NC1=O (centres unmarked)', 'food consumption by rats', '6,5 ± 2,7 ml'),
  ('O=C1Nc2ccc(Cl)cc2C(c2ccccc2)=NC1Nc1ccccc1F (centres unmarked)', 'food consumption by rats', '3,5 ± 1,3 ml'),
  ('O=C1Nc2ccc([N+](=O)[O-])cc2C(c2ccccc2F)=NC1Nc1ccc(Cl)cc1 (centres unmarked)', 'food consumption by rats', '6,7 ± 3,2 ml');

Prompt line: Endpoint output: Amount of consumed liquid food during 30 min in ml of CC(=O)c1cccc(NC2N=C(c3ccccc3F)c3cc([N+](=O)[O-])ccc3NC2=O)c1 (centres unmarked) . Value?
Response line: 21,4 ± 4,9 ml

Prompt line: Endpoint output: Amount of consumed liquid food during 30 min in ml of O=C1Nc2ccc([N+](=O)[O-])cc2C(c2ccccc2)=NC1Nc1ccc(Cl)cc1 (centres unmarked) . Value?
Response line: 6,3 ± 3,2 ml

Prompt line: Endpoint output: Amount of consumed liquid food during 30 min in ml of O=C1Nc2ccc([N+](=O)[O-])cc2C(c2ccccc2Cl)=NC1Nc1ccc(Br)cc1 (centres unmarked) . Value?
Response line: 7,8 ± 2,7 ml

Prompt line: Endpoint output: Amount of consumed liquid food during 30 min in ml of O=C1Nc2ccc(Cl)cc2C(c2ccccc2)=NC1Nc1cccc(Br)c1 (centres unmarked) . Value?
Response line: 5,1 ± 2,2 ml

Prompt line: Endpoint output: Amount of consumed liquid food during 30 min in ml of O=C1Nc2ccc([N+](=O)[O-])cc2C(c2ccccc2F)=NC1Nc1ccccc1Cl (centres unmarked) . Value?
Response line: 2,9 ± 2,1 ml

Prompt line: Endpoint output: Amount of consumed liquid food during 30 min in ml of O=C1Nc2ccc(Cl)cc2C(c2ccccc2)=NC1Nc1ccccc1Br (centres unmarked) . Value?
Response line: 5,5 ± 2,4 ml

====

System: central benzodiazepine receptors (CBR)
Run Description: Affinity to central benzodiazepine receptors, competitive displacement of [3H]-flumazenil (radioreceptor method)
Format: binding
Details: 1×10^−6 mol/L
Measured Parameter: Affinity CBR, % (%)
Note: unit % is implicit; provide only the numeric part.

INSERT INTO results (molecule, measured_value) VALUES
  ('CCCCOC1N=C(c2ccccc2)c2cc(OC(F)(F)F)ccc2NC1=O (centres unmarked)', 61),
  ('CCCCOC1N=C(c2ccccc2Cl)c2cc([N+](=O)[O-])ccc2NC1=O (centres unmarked)', 87),
  ('CCCOC1N=C(c2ccccc2)c2cc(OC(F)(F)F)ccc2NC1=O (centres unmarked)', 60);

Prompt line: Endpoint output: Affinity CBR, % of CCCOC1N=C(c2ccccc2F)c2cc(Br)ccc2NC1=O (centres unmarked) . Value?
Response line: 85

Prompt line: Endpoint output: Affinity CBR, % of O=C1Nc2ccc(Br)cc2C(c2ccccc2F)=NC1OCC1CC1 (centres unmarked) . Value?
Response line: 89

====

Assay Target: peripheral benzodiazepine receptors (PBR) (Homo sapiens, UniProt P30536)
Sequence (P30536 whole entry, species assumed): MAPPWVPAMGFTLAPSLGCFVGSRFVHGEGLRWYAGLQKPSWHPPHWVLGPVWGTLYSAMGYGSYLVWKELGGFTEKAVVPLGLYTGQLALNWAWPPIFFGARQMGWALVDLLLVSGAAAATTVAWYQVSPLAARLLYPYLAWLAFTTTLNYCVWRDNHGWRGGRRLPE
Run Description: Affinity to peripheral benzodiazepine receptors
Assay type: binding
Details: 1×10^−6 mol/L
Measured Parameter: Affinity PBR, % (%)
Note: unit % is implicit; provide only the numeric part.

Please review the entries below; each comes with its answer.
INSERT INTO assay_data (molecule, measured_value) VALUES
  ('CCCCOC1N=C(c2ccccc2)c2cc(OC(F)(F)F)ccc2NC1=O (centres unmarked)', 15),
  ('CCCOC1N=C(c2ccccc2F)c2cc(Br)ccc2NC1=O (centres unmarked)', 5),
  ('CCCOC1N=C(c2ccccc2Cl)c2cc([N+](=O)[O-])ccc2NC1=O (centres unmarked)', 16),
  ('CCCCOC1N=C(c2ccccc2Cl)c2cc([N+](=O)[O-])ccc2NC1=O (centres unmarked)', 19);

# ---- query molecule ----
Prompt line: Endpoint output: Affinity PBR, % of CCCOC1N=C(c2ccccc2)c2cc(OC(F)(F)F)ccc2NC1=O (centres unmarked) . Value?
Response line: 18

====

System: central benzodiazepine receptors (CBR)
Run Description: Affinity to central benzodiazepine receptors, competitive displacement of [3H]-flumazenil (radioreceptor method)
Assay type: binding
Details: 1×10^−6 mol/L
Mark YES for Affinity CBR, % under 80%, NO if at or over.

Here's what some known entries look like.
INSERT INTO results (compound, cat) VALUES
  ('CCCOC1N=C(c2ccccc2Cl)c2cc([N+](=O)[O-])ccc2NC1=O (centres unmarked)', 'NO'),
  ('COCCOC1N=C(c2ccccc2F)c2cc(Br)ccc2NC1=O (centres unmarked)', 'NO'),
  ('COCCOC1N=C(c2ccccc2)c2cc(Cl)ccc2NC1=O (centres unmarked)', 'NO');

Prompt line: Say whether its Affinity CBR, % is strictly beneath 80%. Entry: CCOC1N=C(c2ccccc2)c2cc(OC(F)(F)F)ccc2NC1=O (centres unmarked)
Response line: YES

Prompt line: Say whether its Affinity CBR, % is strictly beneath 80%. Entry: CCCCOC1N=C(c2ccccc2F)c2cc(Br)ccc2NC1=O (centres unmarked)
Response line: NO

Prompt line: Say whether its Affinity CBR, % is strictly beneath 80%. Entry: O=C1Nc2ccc(OC(F)(F)F)cc2C(c2ccccc2)=NC1OCCO (centres unmarked)
Response line: YES

Prompt line: Say whether its Affinity CBR, % is strictly beneath 80%. Entry: CCOC1N=C(c2ccccc2Cl)c2cc([N+](=O)[O-])ccc2NC1=O (centres unmarked)
Response line: NO

Prompt line: Say whether its Affinity CBR, % is strictly beneath 80%. Entry: O=C1Nc2ccc(Br)cc2C(c2ccccc2F)=NC1OCCO (centres unmarked)
Response line: NO

Cited source for all entries: patent US11358939B2
